# target: Epidermal growth factor receptor (Homo sapiens, UniProt P00533)
# Sequence (P00533 whole entry): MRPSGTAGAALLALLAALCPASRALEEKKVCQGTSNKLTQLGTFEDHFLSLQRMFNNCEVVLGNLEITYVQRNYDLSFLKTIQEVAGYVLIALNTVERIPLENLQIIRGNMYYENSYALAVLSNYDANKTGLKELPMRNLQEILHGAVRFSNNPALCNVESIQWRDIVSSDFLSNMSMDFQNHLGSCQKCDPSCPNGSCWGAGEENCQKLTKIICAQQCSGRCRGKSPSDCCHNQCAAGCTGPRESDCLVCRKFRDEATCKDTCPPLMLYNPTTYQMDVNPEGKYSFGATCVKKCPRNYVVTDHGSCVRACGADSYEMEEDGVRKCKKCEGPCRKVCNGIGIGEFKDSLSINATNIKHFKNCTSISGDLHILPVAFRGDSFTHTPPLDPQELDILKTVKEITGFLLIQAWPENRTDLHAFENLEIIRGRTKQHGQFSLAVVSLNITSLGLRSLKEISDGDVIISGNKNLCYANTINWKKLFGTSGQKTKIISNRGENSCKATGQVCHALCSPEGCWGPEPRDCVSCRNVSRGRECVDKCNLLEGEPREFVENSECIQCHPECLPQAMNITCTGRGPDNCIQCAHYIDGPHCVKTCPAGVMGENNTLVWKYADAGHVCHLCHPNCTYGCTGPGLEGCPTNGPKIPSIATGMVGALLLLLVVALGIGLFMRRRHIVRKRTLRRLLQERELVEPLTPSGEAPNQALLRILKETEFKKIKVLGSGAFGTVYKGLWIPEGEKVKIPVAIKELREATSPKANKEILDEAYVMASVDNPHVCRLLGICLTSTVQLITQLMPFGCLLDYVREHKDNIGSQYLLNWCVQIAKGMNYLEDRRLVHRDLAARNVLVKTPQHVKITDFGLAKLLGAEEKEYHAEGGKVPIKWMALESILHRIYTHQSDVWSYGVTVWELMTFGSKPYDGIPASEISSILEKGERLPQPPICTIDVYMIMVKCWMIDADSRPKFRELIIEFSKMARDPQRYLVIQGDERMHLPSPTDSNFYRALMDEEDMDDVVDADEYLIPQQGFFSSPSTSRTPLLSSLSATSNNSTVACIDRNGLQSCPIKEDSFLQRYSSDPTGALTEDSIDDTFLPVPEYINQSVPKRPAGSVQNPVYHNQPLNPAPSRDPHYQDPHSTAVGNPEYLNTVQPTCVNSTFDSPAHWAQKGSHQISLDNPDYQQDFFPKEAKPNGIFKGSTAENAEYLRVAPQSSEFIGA
measuredAttribute: IC50 (µM)
Use µM as the unit, but write only the number.

[Q] Give reported IC50 value for `CCc1ccccc1NC(=O)N1C[C@@H](C)Oc2cc(-c3ccc([C@H]4CC[C@H](CC(=O)O)CC4)cc3)ccc21`
[A] 7.5

---

# assayMethodText: Cmax in dog at 2 mg/kg, po
# Format: ADME, organism-based, Canis lupus familiaris
# Design: dose 2 mg/kg, route oral
# testParameters: in vivo
measuredAttribute: Cmax (µM)
Use µM as the unit, but write only the number.

[Q] Give reported Cmax value for `CCc1ccccc1NC(=O)N1C[C@@H](C)Oc2cc(-c3ccc([C@H]4CC[C@H](CC(=O)O)CC4)cc3)ccc21`
[A] 3.3

---

# assayMethodText: Inhibition of CCK receptor (unknown origin)
# Design: species or system Homo sapiens
measuredAttribute: IC50

[Q] Give reported IC50 value for `CCc1ccccc1NC(=O)N1C[C@@H](C)Oc2cc(-c3ccc([C@H]4CC[C@H](CC(=O)O)CC4)cc3)ccc21`
[A] > 10 µM

---

# assayMethodText: Total AUC in rat at 10 mg/kg
# Format: ADME, organism-based
# Set-up: time AUCmax, dose 10 mg/kg
# testParameters: in vivo
measuredAttribute: AUC (µM·h)
Use µM·h as the unit, but write only the number.

[Q] Give reported AUC value for CCC1CN(C(=O)Nc2ccccc2)c2ccc(-c3ccc(OCC(C)(C)C(=O)O)nc3)cc2O1 (stereo unspecified)
[A] 46

---

# target: Diacylglycerol O-acyltransferase 1 (Mus musculus, UniProt Q9Z2A7)
# Sequence (Q9Z2A7 whole entry): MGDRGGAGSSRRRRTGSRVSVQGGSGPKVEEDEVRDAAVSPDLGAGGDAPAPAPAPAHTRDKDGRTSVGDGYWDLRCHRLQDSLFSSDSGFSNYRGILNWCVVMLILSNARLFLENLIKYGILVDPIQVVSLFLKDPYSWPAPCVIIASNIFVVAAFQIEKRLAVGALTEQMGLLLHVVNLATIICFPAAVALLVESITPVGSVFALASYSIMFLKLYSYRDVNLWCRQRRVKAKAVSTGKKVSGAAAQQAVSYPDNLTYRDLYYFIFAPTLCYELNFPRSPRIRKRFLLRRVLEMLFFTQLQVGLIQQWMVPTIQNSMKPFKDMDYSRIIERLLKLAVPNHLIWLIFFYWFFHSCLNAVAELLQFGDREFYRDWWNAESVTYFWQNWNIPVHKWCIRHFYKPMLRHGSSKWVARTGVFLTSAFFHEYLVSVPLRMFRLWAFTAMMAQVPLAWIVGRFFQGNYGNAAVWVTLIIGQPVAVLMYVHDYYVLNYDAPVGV
measuredAttribute: log10(IC50) (log10 of the value in µM)
All values: log10 IC50 [µM].

CCC1CN(C(=O)Nc2ccccc2)c2ccc(-c3ccc(OCC4(C(=O)O)CC4)nc3)cc2O1 (configuration not stated) :: -1.05
CCC1CN(C(=O)Nc2ccccc2)c2ccc(-c3ccc([C@H]4CC[C@H](CC(=O)O)CC4)cc3)cc2O1 (some centres not stated) :: -1.35
CCc1ccccc1NC(=O)N1C[C@@H](C)Oc2cc(-c3ccc([C@H]4CC[C@H](CC(=O)O)CC4)cc3)ccc21 :: -1.36
CCC1CN(C(=O)Nc2ccccc2)c2ccc(-c3ccc(OCC(C)(C)C(=O)O)nc3)cc2O1 (configuration not stated) :: -1.14
Nc1ccccc1NC(=O)N1CCOc2cc(-c3ccc([C@H]4CC[C@H](CC(=O)O)CC4)cc3)ccc21 :: 0.72

[Q] Give reported log10(IC50) value for `O=C(O)[C@@H]1CCC[C@H]1C(=O)c1ccc(-c2ccc3c(c2)OCCN3C(=O)Nc2ccccc2)cc1`
[A] -0.08

[Q] Give reported log10(IC50) value for CCCC1CN(C(=O)Nc2ccccc2)c2ccc(-c3ccc([C@H]4CC[C@H](CC(=O)O)CC4)cc3)cc2O1 (some centres not stated)
[A] -0.80

[Q] Give reported log10(IC50) value for `CCOc1ccc(NC(=O)N2CCOc3cc(-c4ccc([C@H]5CC[C@H](CC(=O)O)CC5)cc4)ccc32)cc1`
[A] -1.47

[Q] Give reported log10(IC50) value for CCC1CN(C(=O)Nc2ccccc2)c2ccc(-c3ccc(OCC4(C(=O)O)CCC4)nc3)cc2O1 (configuration not stated)
[A] -0.96

[Q] Give reported log10(IC50) value for CC(C)C1CN(C(=O)Nc2ccccc2)c2ccc(-c3ccc([C@H]4CC[C@H](CC(=O)O)CC4)cc3)cc2O1 (some centres not stated)
[A] -0.52

[Q] Give reported log10(IC50) value for `C[C@H]1CN(C(=O)Nc2ccccc2)c2ccc(-c3ccc([C@H]4CC[C@H](CC(=O)O)CC4)cc3)cc2O1`
[A] -0.44

[Q] Give reported log10(IC50) value for `CS(=O)(=O)NC(=O)C[C@H]1CC[C@H](c2ccc(-c3ccc4c(c3)OCCN4C(=O)Nc3ccccc3)cc2)CC1`
[A] 0.86

[Q] Give reported log10(IC50) value for `O=C(O)C[C@H]1CC[C@H](c2ccc(-c3ccc4c(c3)OCCN4C(=O)Cc3ccccc3)cc2)CC1`
[A] -0.96

[Q] Give reported log10(IC50) value for CC(C(=O)O)[C@H]1CC[C@H](c2ccc(-c3ccc4c(c3)OCCN4C(=O)Nc3ccccc3)cc2)CC1 (some centres not stated)
[A] -0.70

---

# target: Diacylglycerol O-acyltransferase 2 (Homo sapiens)
# Sequence (Q96PD7 whole entry): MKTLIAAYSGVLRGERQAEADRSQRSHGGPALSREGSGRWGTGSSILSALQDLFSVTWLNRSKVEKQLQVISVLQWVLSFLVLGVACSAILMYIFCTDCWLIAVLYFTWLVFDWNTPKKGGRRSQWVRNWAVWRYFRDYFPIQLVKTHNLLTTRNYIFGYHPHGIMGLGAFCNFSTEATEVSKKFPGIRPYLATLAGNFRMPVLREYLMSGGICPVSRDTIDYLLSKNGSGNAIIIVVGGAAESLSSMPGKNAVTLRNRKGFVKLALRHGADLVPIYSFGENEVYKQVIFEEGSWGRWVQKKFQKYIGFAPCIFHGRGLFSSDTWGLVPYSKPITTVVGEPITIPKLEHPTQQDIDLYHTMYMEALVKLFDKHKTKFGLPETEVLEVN
measuredAttribute: IC50 (µM)
Use µM as the unit, but write only the number.

[Q] Name the value of IC50 reported for `C[C@@H]1CN(C(=O)Nc2ccccc2)c2ccc(-c3ccc([C@H]4CC[C@H](CC(=O)O)CC4)cc3)cc2O1` when tested on Diacylglycerol O-acyltransferase 2 (Homo sapiens).
[A] 10

---

# assayMethodText: Tmax in rat
# Type: ADME, organism-based
# testParameters: in vivo
measuredAttribute: Tmax (h)
Use h as the unit, but write only the number.

[Q] Give reported Tmax value for `CCCCCCCNC(=O)N1CCOc2cc(-c3ccc([C@H]4CC[C@H](CC(=O)O)CC4)cc3)ccc21`
[A] 2

---

# assayMethodText: AUC in rat at 10 mg/kg
# Assay type: ADME, organism-based
# Parameters: dose 10 mg/kg
# testParameters: plasma
measuredAttribute: AUC (µM·h)
Use µM·h as the unit, but write only the number.

[Q] Give reported AUC value for `O=C(O)C[C@H]1CC[C@H](c2ccc(-c3ccc4c(c3)OCCN4C(=O)Nc3ccc(F)cc3C(F)(F)F)cc2)CC1`
[A] 23

---

# target: Insulin receptor (Homo sapiens)
# Sequence (P06213 28-758 limits assumed): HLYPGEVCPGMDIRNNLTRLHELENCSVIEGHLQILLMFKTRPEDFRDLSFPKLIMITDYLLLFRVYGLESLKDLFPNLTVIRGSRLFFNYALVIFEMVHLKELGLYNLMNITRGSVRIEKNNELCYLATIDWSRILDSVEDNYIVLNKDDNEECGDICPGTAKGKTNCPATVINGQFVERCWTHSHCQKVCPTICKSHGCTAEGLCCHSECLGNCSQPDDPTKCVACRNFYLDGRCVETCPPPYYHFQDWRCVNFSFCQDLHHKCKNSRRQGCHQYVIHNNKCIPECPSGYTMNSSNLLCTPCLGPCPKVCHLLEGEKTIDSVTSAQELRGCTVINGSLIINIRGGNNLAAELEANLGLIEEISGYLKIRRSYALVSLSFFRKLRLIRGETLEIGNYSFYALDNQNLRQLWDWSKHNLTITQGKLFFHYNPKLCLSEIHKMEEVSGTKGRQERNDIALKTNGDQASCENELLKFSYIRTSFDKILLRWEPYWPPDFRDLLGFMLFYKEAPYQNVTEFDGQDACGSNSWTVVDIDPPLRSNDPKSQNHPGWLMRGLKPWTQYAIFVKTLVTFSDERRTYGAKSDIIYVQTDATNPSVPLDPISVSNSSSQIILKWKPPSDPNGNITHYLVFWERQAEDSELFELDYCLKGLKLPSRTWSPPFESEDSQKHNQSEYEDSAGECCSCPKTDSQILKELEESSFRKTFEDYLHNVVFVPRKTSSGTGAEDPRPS
# Sequence (P06213 763-1382 limits assumed): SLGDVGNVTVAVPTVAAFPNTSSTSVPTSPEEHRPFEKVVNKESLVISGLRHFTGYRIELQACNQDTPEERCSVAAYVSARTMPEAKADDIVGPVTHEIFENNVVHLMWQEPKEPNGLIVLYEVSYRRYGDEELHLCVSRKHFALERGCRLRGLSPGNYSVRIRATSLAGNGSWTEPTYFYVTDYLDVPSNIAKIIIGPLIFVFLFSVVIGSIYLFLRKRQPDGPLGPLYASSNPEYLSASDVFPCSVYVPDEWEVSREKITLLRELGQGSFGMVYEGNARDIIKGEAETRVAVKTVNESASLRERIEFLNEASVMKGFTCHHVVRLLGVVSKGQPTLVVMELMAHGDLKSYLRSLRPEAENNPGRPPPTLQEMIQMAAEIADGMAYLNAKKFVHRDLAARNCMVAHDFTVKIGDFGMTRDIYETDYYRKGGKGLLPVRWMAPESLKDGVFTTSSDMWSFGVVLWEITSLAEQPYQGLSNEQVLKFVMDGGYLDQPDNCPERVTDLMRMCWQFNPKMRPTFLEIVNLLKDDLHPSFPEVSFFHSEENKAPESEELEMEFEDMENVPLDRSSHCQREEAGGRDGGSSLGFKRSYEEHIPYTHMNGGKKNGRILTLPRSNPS
# assayMethodText: Inhibition of insulin receptor (unknown origin)
measuredAttribute: IC50 (µM)
Use µM as the unit, but write only the number.

[Q] Name the value of IC50 reported for `CCc1ccccc1NC(=O)N1C[C@@H](C)Oc2cc(-c3ccc([C@H]4CC[C@H](CC(=O)O)CC4)cc3)ccc21` when tested on Insulin receptor (Homo sapiens).
[A] 5.7

---

# target: Diacylglycerol O-acyltransferase 1 (Mus musculus, UniProt Q9Z2A7)
# Sequence (Q9Z2A7 whole entry): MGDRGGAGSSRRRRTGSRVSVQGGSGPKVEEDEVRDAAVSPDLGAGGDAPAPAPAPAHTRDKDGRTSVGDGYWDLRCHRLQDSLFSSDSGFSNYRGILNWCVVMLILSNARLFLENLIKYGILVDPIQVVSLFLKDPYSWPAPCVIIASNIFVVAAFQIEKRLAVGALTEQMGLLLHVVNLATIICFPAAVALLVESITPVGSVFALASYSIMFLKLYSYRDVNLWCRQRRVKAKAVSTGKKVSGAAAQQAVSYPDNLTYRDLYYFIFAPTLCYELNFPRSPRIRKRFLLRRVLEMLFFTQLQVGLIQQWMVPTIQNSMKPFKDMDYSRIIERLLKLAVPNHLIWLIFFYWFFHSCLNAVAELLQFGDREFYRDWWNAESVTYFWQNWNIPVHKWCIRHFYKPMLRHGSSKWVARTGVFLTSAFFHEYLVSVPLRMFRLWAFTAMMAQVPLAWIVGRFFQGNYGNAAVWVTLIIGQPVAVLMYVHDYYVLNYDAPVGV
measuredAttribute: IC50

Here is how some compounds turned out for IC50.
CC1Oc2cc(-c3ccc([C@H]4CC[C@H](CC(=O)O)CC4)cc3)ccc2N(C(=O)Nc2ccccc2)C1=O (stereo partly drawn) :: > 10 µM
O=C(O)C[C@H]1CC[C@H](c2ccc(-c3cnc4c(c3)OCCN4C(=O)Nc3ccccc3)cc2)CC1 :: > 10 µM

Now for the compound whose IC50 we want.
[Q] Give reported IC50 value for `O=C(O)C[C@H]1CC[C@H](c2ccc(-c3ccc4c(c3)OCCN4S(=O)(=O)Cc3ccccc3)cc2)CC1`
[A] > 10 µM
